ASSAY_REMARKS: Pharmacokinetic evaluation, beagle test
Format: in vivo
CONDITION: both sexes, beagle, dog, plasma, po; beagles, i.g., 2.0 mg/kg; read-out: Plasma concentration Cmax
ENDPOINT_NAME: Cmax (ng/mL)

[
  {
    "MOLECULE": "O=C1CCC(N2Cc3cc(N4CCN(CC5CCN(c6ccc([C@@H]7c8ccc(O)cc8CC[C@@H]7c7ccccc7)cc6)CC5)CC4)ccc3C2=O)C(=O)N1 (some centres unmarked) [Comparative Example 1, reference compound]",
    "Cmax / ng/mL": 324
  },
  {
    "MOLECULE": "CC(C)C[C@H]1CCc2cc(O)ccc2[C@H]1c1ccc(N2CCC(CN3CCN(c4ccc5c(c4)CN([C@H]4CCC(=O)NC4=O)C5=O)CC3)CC2)cc1",
    "Cmax / ng/mL": 436
  }
]
